Listed here are compounds together with their documented melting point.
Structures can show the parent of a compound that is named as a salt.

Answered examples (2):
> print(dat)
                                   compound            data.value
1  C[C@@H]1CN(c2ccc3cc(-c4cn(-c5ccccn5)cn4)c(=O)oc3c2)C[C@H](C)N1         201 to 206 °C
2  Cc1ccc2nc(-c3cc4ccc(N(C)CCN(C)C)cc4oc3=O)cn2c1  140 to 180 °C (dec.)

Read off the recorded melting point for O=c1oc2cc(N3CCNCC3)ccc2cc1-c1nc2c(Cl)cccc2s1 (as salt: hydrochloride) 290 °C (dec.)

Tell us which melting point value is on record for O=c1oc2cc(N3CCNCC3)ccc2cc1-c1cn2cccc(F)c2n1 236 to 238 °C

For Cc1ccc(-c2cc3ccc(N4CCNCC4)cc3oc2=O)cn1 , write its melting point. 148 to 150 °C

For the compound Cc1cn2cc(-c3cc4ccc(N5CCN(C)[C@H](C)C5)cc4oc3=O)cnc2n1 , give its measured melting point value. 280 to 282 °C

Provide only the value of recorded melting point for CCN1CCN(c2ccc3cc(-c4cn5cccc(C)c5n4)c(=O)oc3c2)CC1 211 to 213 °C

Fill in reported melting point for this entry: Cc1cn2cc(-c3cc4ccc(O[C@@H]5CCNC5)cc4oc3=O)nc2cn1 254 to 258 °C

Give recorded melting point. CN1CCCN(c2ccc3cc(-c4cn5cc(Cl)cnc5n4)c(=O)oc3c2)CC1 289 to 292 °C

Retrieve melting point measured for C[C@@H]1CN(c2cc(F)c3cc(-c4cn5ccc(C(F)(F)F)cc5n4)c(=O)oc3c2)C[C@H](C)N1 and print it. 210 to 219 °C

Quick one: give measured melting point for Cl.O=c1oc2cc(N3CCNCC3)ccc2cc1-c1nc2c(Cl)cccc2o1 278 to 282 °C

In one line, give reported melting point of the entry Cc1cn2cc(-c3cc4ccc(OC5CCN(C)CC5)cc4oc3=O)nc2c(C)n1 . 165 to 168 °C

----------
molecules and their reported EC1.5x (concentration giving 1.5-fold Smn protein increase)
test system: Smn protein; assay: Smn protein assay in cultured cells (SMN HTRF); assay type: cell-based, human; details: read-out: EC1.5x for Smn protein expression

> print(dat)
                                smiles.text        data.value
1  Cc1cn2cc(-c3cc4ccc(C5=CCN(CCO)CC5)cc4oc3=O)nc2c(C)n1          < 300 nM
2    O=c1oc2cc(N3CCNCC3)cc(F)c2cc1-c1ccccn1  3000 to 10000 nM
3  Cc1cn2cc(-c3cc4ccc(C5=CCN(C(C)C)CC5)cc4oc3=O)nc2c(C)n1          < 300 nM
4  Cc1cn2cc(-c3cc4ccc(C5=CCN(C)CC5)cc4oc3=O)nc2c(C)n1          < 300 nM
5  O=c1oc2cc(N3CCN4CCC3CC4)ccc2cc1-c1cn2ccsc2n1   1000 to 3000 nM

Here is the next item to consider.
For the molecule CCN1CCC(F)(c2ccc3cc(-c4cn5cc(C)nc(C)c5n4)c(=O)oc3c2)CC1 , report EC1.5x (concentration giving 1.5-fold Smn protein increase). < 300 nM

Values were extracted from patent USRE47689E1.
